Target: ETS1 (UniProt P14921)
Sequence: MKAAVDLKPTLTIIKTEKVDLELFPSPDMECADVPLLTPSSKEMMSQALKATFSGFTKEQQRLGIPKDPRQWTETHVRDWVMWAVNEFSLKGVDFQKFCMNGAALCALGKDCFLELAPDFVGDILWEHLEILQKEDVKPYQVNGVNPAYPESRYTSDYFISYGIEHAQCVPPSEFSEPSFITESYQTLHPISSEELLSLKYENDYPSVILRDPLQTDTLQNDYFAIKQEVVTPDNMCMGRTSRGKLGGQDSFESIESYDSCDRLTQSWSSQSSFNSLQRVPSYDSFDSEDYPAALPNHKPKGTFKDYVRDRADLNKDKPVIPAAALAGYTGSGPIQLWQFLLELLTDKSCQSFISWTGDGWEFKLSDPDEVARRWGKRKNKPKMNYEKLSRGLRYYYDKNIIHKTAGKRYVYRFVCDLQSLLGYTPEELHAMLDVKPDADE
Experiment: TF binding intensity (PBM fluorescence), negative control probe (arbitrary fluorescence units); higher = stronger binding
Listed sequences paired with reported TF binding intensity
Give your answer as a number; write no unit.

As a guide, the following entries are already answered.
| Sequence input | Observed measurement |
| --- | --- |
| GCCCTGAGACTTGCCTTGCAATGCCATGTTTGTGTA (protein concentration 10 nM) | 125 |
| CTGAGAGCCAGGCCCGTTCCCTCTGAACCTCAGTTC (protein concentration 10 nM) | 103 |
| GATATGAGATCAGAATGAGGCTGCATGAGAACAAGT (protein concentration 10 nM) | 112 |

Could you now look at the following sequence, please?
Give me measured TF binding intensity, please, for this sequence: TCTGAATGCTAAGCTCATCGAAGACGCCCAGCACTT (protein concentration 10 nM)
123

* * *

Target: ETS1 (UniProt P14921)
Sequence: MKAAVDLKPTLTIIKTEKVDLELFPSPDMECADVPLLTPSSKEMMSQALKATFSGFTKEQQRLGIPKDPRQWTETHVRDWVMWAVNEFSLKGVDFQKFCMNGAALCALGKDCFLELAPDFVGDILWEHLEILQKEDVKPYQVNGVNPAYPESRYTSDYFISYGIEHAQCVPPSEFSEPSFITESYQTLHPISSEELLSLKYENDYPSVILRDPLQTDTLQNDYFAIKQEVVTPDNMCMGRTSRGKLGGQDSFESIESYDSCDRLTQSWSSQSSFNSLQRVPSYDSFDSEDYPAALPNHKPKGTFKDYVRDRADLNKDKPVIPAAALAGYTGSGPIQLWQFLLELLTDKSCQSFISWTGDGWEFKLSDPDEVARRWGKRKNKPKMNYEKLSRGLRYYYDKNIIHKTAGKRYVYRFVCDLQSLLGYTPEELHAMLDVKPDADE
Test: ETS1 binding intensity (PBM fluorescence) in presence of RUNX1, normalised to ETS1-only experiment (arbitrary fluorescence units); higher = stronger binding
Details: ETS1 concentration 1 nM; RUNX1 concentration 25 nM
The entries below come with measured ETS1 binding intensity values attached.
Answer using only a numeral; do not append any unit.

Use the examples below as a reference point.
| Sequence input | ETS1 binding intensity |
| --- | --- |
| ATAAAGGATGTACAGTATTTAGAGAACAGTGGTTAA | 485 |
| CCAAAATTGCCACGGAAACCACATCTTTCAGGCGAG | 687 |

Indicate the recorded ETS1 binding intensity value for this sequence: GCAGCTCTGGCAGGATGCGGTTAAATATGTATCCAC
12700

Determine from records and report ETS1 binding intensity for GCCAGGGCAGGAAGTTGCTAACCGCCCCAGAGCAGG
4850

Determine its reported ETS1 binding intensity: GCGCCCCGTCCTTCCGCAGCCCAACCGCCTCTTCCC
383

Output measured ETS1 binding intensity for this item: TCCCGGCGTTCTTCCGCTGGCTCAGCCGCAAGTACC
822
